biological target: PARP-1 protein (human, Recombinant (His Tag)) (Homo sapiens, UniProt P09874); construct: His tag; assay: Surface plasmon resonance (SPR) binding assay; conditions: SPR imaging
Sequence (P09874 whole entry): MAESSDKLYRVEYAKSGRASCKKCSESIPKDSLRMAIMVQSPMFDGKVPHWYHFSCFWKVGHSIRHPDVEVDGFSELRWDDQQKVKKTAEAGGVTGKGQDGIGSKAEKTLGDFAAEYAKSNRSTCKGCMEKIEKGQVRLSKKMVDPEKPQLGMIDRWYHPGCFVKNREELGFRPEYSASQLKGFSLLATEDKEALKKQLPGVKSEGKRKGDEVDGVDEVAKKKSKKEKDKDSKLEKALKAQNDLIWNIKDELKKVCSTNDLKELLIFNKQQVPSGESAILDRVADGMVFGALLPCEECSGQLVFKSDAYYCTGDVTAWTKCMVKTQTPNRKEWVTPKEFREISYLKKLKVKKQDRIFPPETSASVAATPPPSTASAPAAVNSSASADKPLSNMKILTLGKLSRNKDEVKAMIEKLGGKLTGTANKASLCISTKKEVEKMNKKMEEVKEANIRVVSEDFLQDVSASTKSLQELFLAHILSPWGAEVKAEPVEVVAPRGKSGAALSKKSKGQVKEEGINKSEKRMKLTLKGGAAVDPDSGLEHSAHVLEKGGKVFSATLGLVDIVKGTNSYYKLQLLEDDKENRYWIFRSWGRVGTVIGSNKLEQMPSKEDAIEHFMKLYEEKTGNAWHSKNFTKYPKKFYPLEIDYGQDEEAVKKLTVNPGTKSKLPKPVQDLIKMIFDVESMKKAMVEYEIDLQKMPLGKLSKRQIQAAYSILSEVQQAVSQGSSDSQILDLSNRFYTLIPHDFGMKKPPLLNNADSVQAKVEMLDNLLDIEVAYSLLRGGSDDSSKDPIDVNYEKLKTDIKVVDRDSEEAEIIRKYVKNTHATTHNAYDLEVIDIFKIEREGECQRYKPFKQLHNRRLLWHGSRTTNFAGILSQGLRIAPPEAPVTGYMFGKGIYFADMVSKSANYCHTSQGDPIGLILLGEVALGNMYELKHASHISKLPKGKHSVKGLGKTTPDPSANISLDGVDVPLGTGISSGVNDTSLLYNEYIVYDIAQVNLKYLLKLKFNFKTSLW
Observation Type: Kd (nM)
Numbers only, in nM.

Q: Fill in Kd for O=C(O)CN1CCN(CC(=O)O)CCN(CC(=O)N2CCN(C(=O)c3cc(Cc4n[nH]c(=O)c5ccccc45)ccc3F)CC2)CCN(CC(=O)O)CC1 [DOTA-Olaparib] tested with PARP-1 protein (human, Recombinant (His Tag)) (Homo sapiens, UniProt P09874).
Result: 14.5
